Below is a list of entries, each paired with its recorded viability, T/C value.
# Test system: 429239-143-T-J1-PDC complex spheroid viability;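 also: luminescence signal used as surrogate measure of viable cells; spheroids exposed to compounds for seven days before readout; 100% = DMSO vehicle control viability as luminescence relative to vehicle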
# Run Description: Anticancer human tumor 429239-143-T-J1-PDC patient-derived small cell lung carcinoma cell line growth inhibition [POLQ]
# Condition Parameters: second compound 0.0316 µM; first compound 0.1 µM; active compounds read low
Report the value in % with no unit label.

The following compounds have reported results that may help.
- Compound: "Nc1ccn(C2OC(CO)C(O)C2(F)F)c(=O)n1 (stereo not given) + Cc1cccc(N(C)C(=O)C2C(O)CCN2c2nc(C)cc(C(F)(F)F)c2C#N)c1"
  viability, T/C [%]: 20.4
- Compound: "CCc1cc2c(N3CCc4c(cc(Cn5ccnc5)cc4-c4cn(C)nc4C(F)(F)F)C3=O)cc(C)nc2c(OC)n1 + COC1C(OC(N)=O)C(O)C(Oc2ccc3c(O)c(NC(=O)c4ccc(O)c(CC=C(C)C)c4)c(=O)oc3c2C)OC1(C)C"
  viability, T/C [%]: 85.1
- Compound: "COc1cccc2c1C(=O)c1c(O)c3c(c(O)c1C2=O)CC(O)(C(=O)CO)CC3OC1CC(N)C(O)C(C)O1 (stereo not given) + Cc1cccc(N(C)C(=O)C2C(O)CCN2c2nc(C)cc(C(F)(F)F)c2C#N)c1"
  viability, T/C [%]: 15.2
- Compound: "O=C(Nc1ccc(O)c(NS(=O)(=O)c2ccc(F)cc2)c1)c1ccc(-c2ccccc2)cc1 + Nc1ccc(C#CCN(C(=O)Cc2ncc(C(F)(F)F)cc2C(F)(F)F)c2ccc(F)cc2)nn1"
  viability, T/C [%]: 106

Q) GET /values?readout=viability, T/C&item= CCc1cc2c(N3CCc4c(cc(Cn5ccnc5)cc4-c4cn(C)nc4C(F)(F)F)C3=O)ccnc2c(OC)n1 + COC1C(OC(N)=O)C(O)C(Oc2ccc3c(O)c(NC(=O)c4ccc(O)c(CC=C(C)C)c4)c(=O)oc3c2C)OC1(C)C
A) 96.9
